Data origin, for the record: patent US20120128689A1

# assayed target: T1, cyno IL-23 (cyno, limits assumed)
# T1 construct: Heterodimer of p19 and p40; also called cynomolgus IL-23
# T1 chain 1: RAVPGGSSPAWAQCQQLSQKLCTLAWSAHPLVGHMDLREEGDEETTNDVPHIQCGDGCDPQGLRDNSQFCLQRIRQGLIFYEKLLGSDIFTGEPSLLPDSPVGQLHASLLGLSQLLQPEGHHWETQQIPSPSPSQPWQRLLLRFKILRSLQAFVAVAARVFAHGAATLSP
# T1 chain 2: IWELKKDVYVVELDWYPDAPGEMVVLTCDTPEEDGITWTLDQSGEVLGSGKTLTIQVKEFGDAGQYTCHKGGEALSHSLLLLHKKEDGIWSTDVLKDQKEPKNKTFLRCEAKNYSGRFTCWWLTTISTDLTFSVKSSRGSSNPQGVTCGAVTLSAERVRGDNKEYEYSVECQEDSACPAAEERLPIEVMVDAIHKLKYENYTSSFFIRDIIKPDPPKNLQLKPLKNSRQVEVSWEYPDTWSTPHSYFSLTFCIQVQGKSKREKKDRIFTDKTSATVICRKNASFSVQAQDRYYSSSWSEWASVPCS
# measurement description: SPR Biacore, purified mAb captured on anti-human IgG, cyno IL-23 64-0.062 nM
# Procedure: An anti-human IgG (Biacore BR-1008-39) was immobilised on a Biacore CM5 chip by primary amine coupling in accordance with the manufacturer's instructions. Anti IL-23 antibodies were captured on this surface and after a period of stabilisation, IL-23 (cyno or human) was passed over the antibody captured surface and a binding sensorgram was obtained. […] Data was analysed using the 1:1 model using the software inherent to the Biacore T100. […]
The entries below are paired with their reported Kd.
Number in nM, nothing else.

Consider the reported Kd for these binders:
A24AM18 (antibody, human IgG1, kappa, V domains shown) VH: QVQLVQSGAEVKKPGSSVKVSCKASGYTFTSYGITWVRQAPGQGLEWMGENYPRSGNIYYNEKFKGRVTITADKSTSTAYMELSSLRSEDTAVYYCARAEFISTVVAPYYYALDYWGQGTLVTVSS VL: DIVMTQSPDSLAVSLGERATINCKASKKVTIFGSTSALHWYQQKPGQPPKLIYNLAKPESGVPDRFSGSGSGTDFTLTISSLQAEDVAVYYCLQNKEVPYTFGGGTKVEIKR ... 0.07
A3M0 (antibody, human IgG1, kappa, V domains shown, human gamma1 and kappa constant regions; Tested as HEK supernatant and as purified antibody; also called A3M0 purified) VH: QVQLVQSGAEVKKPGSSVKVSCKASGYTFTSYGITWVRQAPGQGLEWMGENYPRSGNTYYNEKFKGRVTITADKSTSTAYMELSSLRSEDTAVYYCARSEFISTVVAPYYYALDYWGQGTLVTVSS VL: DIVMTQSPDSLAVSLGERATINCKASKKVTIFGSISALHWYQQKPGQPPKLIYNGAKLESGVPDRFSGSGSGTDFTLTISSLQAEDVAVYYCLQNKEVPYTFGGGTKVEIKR ... 0.302

Proceed to the following item.
Incoming: Any idea what Kd was measured for A5M0 (antibody, human IgG1, kappa, V domains shown) VH: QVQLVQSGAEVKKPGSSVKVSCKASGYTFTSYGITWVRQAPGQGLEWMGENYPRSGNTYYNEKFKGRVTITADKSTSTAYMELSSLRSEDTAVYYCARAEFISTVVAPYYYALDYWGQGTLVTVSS VL: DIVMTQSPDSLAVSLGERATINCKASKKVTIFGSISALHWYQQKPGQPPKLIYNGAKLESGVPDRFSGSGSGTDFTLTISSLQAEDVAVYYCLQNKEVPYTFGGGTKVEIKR ?
Outgoing: 0.173
